- tested-target: Metabotropic glutamate receptor 3 (Rattus norvegicus) (UniProt P31422)
- Sequence (P31422 23-879 limits assumed): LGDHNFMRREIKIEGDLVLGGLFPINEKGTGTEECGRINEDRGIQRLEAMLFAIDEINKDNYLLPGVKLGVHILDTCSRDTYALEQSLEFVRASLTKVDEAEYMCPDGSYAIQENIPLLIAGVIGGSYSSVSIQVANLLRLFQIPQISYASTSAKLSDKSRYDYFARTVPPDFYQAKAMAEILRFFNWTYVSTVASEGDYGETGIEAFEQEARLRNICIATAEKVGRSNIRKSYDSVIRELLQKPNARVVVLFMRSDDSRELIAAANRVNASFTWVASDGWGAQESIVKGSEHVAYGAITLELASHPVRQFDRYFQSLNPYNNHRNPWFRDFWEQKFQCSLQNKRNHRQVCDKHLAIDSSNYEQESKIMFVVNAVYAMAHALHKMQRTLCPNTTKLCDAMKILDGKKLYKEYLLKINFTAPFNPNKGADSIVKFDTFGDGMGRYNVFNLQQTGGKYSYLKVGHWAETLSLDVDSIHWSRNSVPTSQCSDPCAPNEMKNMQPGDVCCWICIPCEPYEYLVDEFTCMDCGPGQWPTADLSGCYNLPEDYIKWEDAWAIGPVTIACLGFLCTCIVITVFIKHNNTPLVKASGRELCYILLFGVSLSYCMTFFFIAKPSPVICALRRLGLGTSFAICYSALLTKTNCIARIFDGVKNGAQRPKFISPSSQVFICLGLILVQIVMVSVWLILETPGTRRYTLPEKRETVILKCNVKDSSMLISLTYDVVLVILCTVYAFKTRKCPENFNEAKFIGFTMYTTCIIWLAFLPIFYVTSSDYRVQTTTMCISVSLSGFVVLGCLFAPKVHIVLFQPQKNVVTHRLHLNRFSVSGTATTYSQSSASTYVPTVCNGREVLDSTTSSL
- test-summary: Positive allosteric modulator activity at rat mGlu3 receptor transfected in GIRK channel overexpressing cells assessed as potentiation of glutamate-induced response by thallium mobilization assay relative to glutamate
- Parameters: concentration or dose not given beside the values
- test-parameters: filed as positive allosteric modulator
reported-endpoint: Activity (%)

[[record]]
given_smiles = "Cc1c(OCCCCOc2ccc(C(=O)O)c(F)c2)ccc(C(=O)CC(C)(C)C)c1O"
result_number = 107

[[record]]
given_smiles = "Cc1cc(C(=O)O)ccc1OC[C@H](C)COc1ccc(C(=O)CC(C)(C)C)c(O)c1C"
result_number = 97

[[record]]
given_smiles = "Cc1c(OCCCCOc2ccc(Cl)c(C(=O)O)c2)ccc(C(=O)CC(C)(C)C)c1O"
result_number = 87


Data provenance: ChEMBL document CHEMBL4834498
